molecular target: Muscarinic acetylcholine receptor M2 (Rattus norvegicus, UniProt P10980)
pKi: −log10 of the molar value.
Label Satisfied when pKi >= 9; otherwise Not satisfied.

Request: Determine whether this molecule has pKi no lower than 9: COc1ccc(S(=O)(=O)c2ccc(C3(C4CCN(C5CCN(C(=O)c6ccccc6F)CC5)CC4)OCCO3)cc2)cc1
Response: Not satisfied

Request: Determine whether this molecule has pKi no lower than 9: COc1ccc(S(=O)(=O)c2ccc(C3(C4CCN(C5CCN(C(=O)c6cccc(C)c6N)CC5)CC4)OCCO3)cc2)cc1
Response: Satisfied

Request: Determine whether this molecule has pKi no lower than 9: COc1ccc(S(=O)(=O)c2ccc(C3(C4CCN(C5CCN(C(=O)c6cccc(N)c6Cl)CC5)CC4)OCCO3)cc2)cc1
Response: Satisfied

Request: Determine whether this molecule has pKi no lower than 9: COc1ccc(S(=O)(=O)c2ccc(C3(C4CCN(C5CCN(C(=O)c6c(Cl)cccc6Cl)CC5)CC4)OCCO3)cc2)cc1
Response: Not satisfied

Request: Determine whether this molecule has pKi no lower than 9: Cc1ccccc1C(=O)N1CCC(N2CCC(C3(c4ccc(S(=O)(=O)c5ccc6c(c5)OCO6)cc4)OCCO3)CC2)CC1
Response: Satisfied

----------
test: Area under curve was determined
Readout Type: AUC (ng·h/mL)
# output: bare number, implied unit ng·h/mL

Request: Can you look up the measured AUC of COc1ccc(S(=O)(=O)c2ccc(C3(C4CCN(C5CCN(C(=O)c6cccc(C)c6N)CC5)CC4)OCCO3)cc2)cc1 for me?
Response: 1570

----------
Would you kindly list Ratio for each of these molecules?
biological target: Muscarinic receptor M1 and M2 (Rattus norvegicus) (UniProt P08482+P10980); assay: Ratio of binding affinity of muscarinic M1 receptor to muscarinic M2 receptor; format: protein assay
Sequence (P08482 whole entry, looked up): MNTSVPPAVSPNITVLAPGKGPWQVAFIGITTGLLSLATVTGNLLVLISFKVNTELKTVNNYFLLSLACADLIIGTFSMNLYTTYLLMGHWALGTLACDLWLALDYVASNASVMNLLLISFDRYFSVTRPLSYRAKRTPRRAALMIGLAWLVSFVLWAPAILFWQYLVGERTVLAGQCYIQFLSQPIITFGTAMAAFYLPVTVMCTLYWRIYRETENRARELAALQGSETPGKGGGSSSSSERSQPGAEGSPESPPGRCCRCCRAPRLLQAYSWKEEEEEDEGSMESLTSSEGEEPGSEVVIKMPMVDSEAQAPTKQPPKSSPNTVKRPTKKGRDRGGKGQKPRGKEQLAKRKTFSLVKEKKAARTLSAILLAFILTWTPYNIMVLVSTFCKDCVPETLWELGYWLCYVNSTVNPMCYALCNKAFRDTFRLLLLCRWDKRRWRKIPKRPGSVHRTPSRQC
Sequence (P10980 whole entry, looked up): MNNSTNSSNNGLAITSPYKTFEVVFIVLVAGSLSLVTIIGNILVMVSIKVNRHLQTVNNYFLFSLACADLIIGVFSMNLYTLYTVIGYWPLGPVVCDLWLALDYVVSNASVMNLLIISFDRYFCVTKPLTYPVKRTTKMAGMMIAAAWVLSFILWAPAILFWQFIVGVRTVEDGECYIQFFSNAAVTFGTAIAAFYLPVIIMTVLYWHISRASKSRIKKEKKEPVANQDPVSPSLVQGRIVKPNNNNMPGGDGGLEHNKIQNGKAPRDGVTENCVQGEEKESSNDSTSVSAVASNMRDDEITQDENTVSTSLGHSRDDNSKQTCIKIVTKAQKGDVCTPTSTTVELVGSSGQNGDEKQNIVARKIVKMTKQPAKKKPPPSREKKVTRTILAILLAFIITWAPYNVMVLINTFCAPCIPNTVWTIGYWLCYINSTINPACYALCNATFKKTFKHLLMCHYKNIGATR
Form rule: numeric answer, no unit written next to it.

Request: Enter reported Ratio observed with Muscarinic receptor M1 and M2 (Rattus norvegicus) (UniProt P08482+P10980) for COc1ccc(S(=O)(=O)c2ccc(C3(C4CCN(C5CCN(C(=O)c6cccc(Cl)c6C)CC5)CC4)OCCO3)cc2)cc1
Response: 42

Request: Enter reported Ratio observed with Muscarinic receptor M1 and M2 (Rattus norvegicus) (UniProt P08482+P10980) for COc1ccc(S(=O)(=O)c2ccc(C3(C4CCN(C5CCN(C(=O)c6ccccc6C)CC5)CC4)SCCS3)cc2)cc1
Response: 89

Request: Enter reported Ratio observed with Muscarinic receptor M1 and M2 (Rattus norvegicus) (UniProt P08482+P10980) for COc1ccc([S+]([O-])c2ccc(C3(C4CCN(C5CCN(C(=O)c6ccccc6C)CC5)CC4)O[C@H](C)[C@@H](C)O3)cc2)cc1 (stereo partly drawn)
Response: 14

Request: Enter reported Ratio observed with Muscarinic receptor M1 and M2 (Rattus norvegicus) (UniProt P08482+P10980) for COc1ccc([S+]([O-])c2ccc(C3(C4CCN(C5CCN(C(=O)c6ccccc6C)CC5)CC4)OCCO3)cc2)cc1 (stereo not drawn)
Response: 146

Request: Enter reported Ratio observed with Muscarinic receptor M1 and M2 (Rattus norvegicus) (UniProt P08482+P10980) for COc1ccc(S(=O)(=O)c2ccc(C3(C4CCN(C5CCN(C(=O)c6ccccc6F)CC5)CC4)OCCO3)cc2)cc1
Response: 49

Request: Enter reported Ratio observed with Muscarinic receptor M1 and M2 (Rattus norvegicus) (UniProt P08482+P10980) for COc1ccc(S(=O)(=O)c2ccc(C3(C4CCN(C5CCN(C(=O)c6cccc(C)c6C)CC5)CC4)OCCO3)cc2)cc1
Response: 66

Request: Enter reported Ratio observed with Muscarinic receptor M1 and M2 (Rattus norvegicus) (UniProt P08482+P10980) for Cc1ccccc1C(=O)N1CCC(N2CCC(C3(c4ccc(S(=O)(=O)c5ccc6c(c5)OCO6)cc4)OCCO3)CC2)CC1
Response: 28

Request: Enter reported Ratio observed with Muscarinic receptor M1 and M2 (Rattus norvegicus) (UniProt P08482+P10980) for COc1ccc(S(=O)(=O)c2ccc(C3(C4CCN(C5CCN(C(=O)c6ccccc6C)CC5)CC4)O[C@H](C)[C@@H](C)O3)cc2)cc1
Response: 32
